Entry source: the supplement of paper PMC11061612

- System: HT-3 (Cervical Carcinoma);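 also: after 72 h of two-drug dosing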
- EXPERIMENT: Bliss excess, mean over the matrix (fraction); higher = more synergy
RECORDED_METRIC: Bliss excess
Answer with a number only.

Answered examples (7):
1. CC(=O)c1c(C)c2cnc(Nc3ccc(N4CCNCC4)cn3)nc2n(C2CCCC2)c1=O [Palbociclib] + Cc1c2c(nn1C)CSCc1cc(n(C)n1)CSc1cc(c3ccccc3c1)OCCCc1c(C(=O)O)n(C)c3c-2c(Cl)ccc13 [AZD5991] (first compound max 10 µM, 7x7, partner max 1 µM)    -0.0751
2. Cc1c2c(nn1C)CSCc1cc(n(C)n1)CSc1cc(c3ccccc3c1)OCCCc1c(C(=O)O)n(C)c3c-2c(Cl)ccc13 [AZD5991] + Cn1cnc2c(F)c(Nc3ccc(Br)cc3Cl)c(C(=O)NOCCO)cc21 [Selumetinib] (first compound max 1 µM, 7x7, partner max 3 µM)    0.0926
3. Cc1cc2ncnn2cc1Nc1ncc2c(n1)n(C1CCOCC1)c(=O)n2C [AZD7648] + C[C@@H]1COCCN1C2=NC(=NC(=C2)C3(CC3)[S@](=N)(=O)C)C4=C5C=CNC5=NC=C4 [AZD6738] (first compound max 10 µM, 7x7, partner max 10 µM)    0.0076
4. CN(C)CCCOc1ccc(-c2ccc3ncc4c(c3c2)n(C2CCOCC2)c(=O)n4C)cn1 [AZD0156] + C=CCn1c(=O)c2cnc(Nc3ccc(N4CCN(C)CC4)cc3)nc2n1-c1cccc(C(C)(C)O)n1 [AZD1775] (first compound max 1 µM, partner max 1 µM)    -0.023
5. NC1(C(=O)N[C@@H](CCO)c2ccc(Cl)cc2)CCN(c2ncnc3[nH]ccc23)CC1 [Capivasertib] + COc1nnc2ccc(N3CCC(c4ccc(OCCN5CCN(C)C(=O)[C@H]5C)cc4)CC3)nn12 [AZD5153] (first compound max 10 µM, 7x7, partner max 1 µM)    -0.0281
6. COc1cccc(OCCCN)c1-c1cc(Nc2cnc(C#N)cn2)n[nH]1 [Prexasertib] + C=CCn1c(=O)c2cnc(Nc3ccc(N4CCN(C)CC4)cc3)nc2n1-c1cccc(C(C)(C)O)n1 [AZD1775] (first compound max 1 µM, partner max 1 µM)    0.159
7. COc1nnc2ccc(N3CCC(c4ccc(OCCN5CCN(C)C(=O)[C@H]5C)cc4)CC3)nn12 [AZD5153] + CCN(CCO)CCCOc1ccc2c(Nc3cc(CC(=O)Nc4cccc(F)c4)[nH]n3)ncnc2c1 [AZD2811] (first compound max 1 µM, 7x7, partner max 1 µM)    -0.0644

API: the following record is the query input.
Q: Consider the compound CN(CCO)CC[C@H](CSc1ccccc1)Nc1ccc(S(=O)(=O)NC(=O)c2ccc(N3CCC([C@@H](O)c4ccccc4-c4ccc(Cl)cc4)CC3)cc2)cc1S(=O)(=O)C(F)(F)F [AZD4320] + Cc1cc2ncnn2cc1Nc1ncc2c(n1)n(C1CCOCC1)c(=O)n2C [AZD7648] (first compound max 1 µM, 7x7, partner max 10 µM) and give its measured Bliss excess.
Result: -0.0403
